System: Trypanosoma brucei
Run description: Inhibition of Trypanosoma brucei recombinant His-tagged TryS expressed in Escherichia coli BL21 (DE3) assessed as residual enzyme activity by measuring inorganic phosphate release at 30 uM after 15 mins by malachite green dye based end-point assay
Please respond with reported Activity for every item in the list.
State the value with its unit after it.

These recorded examples may help you get a feel for the data.
Provide Activity, system Trypanosoma brucei, entry O=C(CN1C(=O)Cc2c([nH]c3ccc(Br)cc23)-c2ccc(Cl)cc21)NCc1cccc(Cl)c1
55.9%

Using Trypanosoma brucei as the test system, report measured Activity of Cc1ccc(CNC(=O)CN2C(=O)Cc3c([nH]c4ccc(Br)cc34)-c3ccc(Cl)cc32)cc1 .
53.7%

Lab note: Trypanosoma brucei assay, enter Activity for O=C(CN1C(=O)Cc2c([nH]c3ccc(Br)cc23)-c2ccc(Cl)cc21)NCc1ccc(C(F)(F)F)cc1 here
63.5%

Turning now to a further record.
Under Trypanosoma brucei, report Activity for COc1ccc(CNC(=O)CN2C(=O)Cc3c([nH]c4ccc(Br)cc34)-c3ccc(Cl)cc32)cc1
53.5%
